# Activity values compiled below
# Tested on: Mus musculus
# Assay Remarks: Locomotor activity in CD1 mouse assessed as stimulation at 10 mg/kg, ip after 3 hrs relative to control
# Assay type: functional
# Test Settings: route intraperitoneal

Compound | Activity [%]
COC(=O)[C@H]1C2CCC(C[C@@H]1c1ccc(Br)cc1)N2C (stereo not given in full) | 267
COC(=O)[C@@H]1C2CCC(C[C@H]1c1ccc(Cl)cc1)N2C (stereo not given in full) | 373
COC(=O)[C@H]1[C@@H](c2ccc(F)cc2)C[C@H]2CC[C@H]1N2C | 594
COC(=O)[C@@H]1C2CC[C@H](C[C@@H]1c1ccccc1)N2C | 964
COC(=O)[C@@H]1C2CCC(C[C@H]1c1ccc(C)cc1)N2C (stereo not given in full) | 108
COC(=O)[C@H]1[C@H]2CCC(C[C@H]1c1ccc(C)cc1)N2C | 120
COC(=O)[C@H]1C2CCC(C[C@@H]1c1ccc(F)cc1)N2C (stereo not given in full) | 260
COC(=O)[C@@H]1C2CC[C@H](C[C@@H]1c1ccc(C)cc1)N2C | 343
COC(=O)[C@H]1C2CCC(C[C@@H]1c1ccccc1)N2C (stereo not given in full) | -16
COC(=O)[C@H]1C2CCC(C[C@@H]1c1ccc(I)cc1)N2C (stereo not given in full) | 85

----------
# Tested on: Mus musculus
# Assay Remarks: Locomotor activity in CD1 mouse assessed as stimulation at 30 mg/kg, ip after 1 hr relative to control
# Format: functional
# Test Settings: route intraperitoneal
Measured Activity by item

Compound | Readout Units | Activity
COC(=O)[C@H]1[C@@H](OC(=O)c2ccccc2)C[C@@H]2CC[C@H]1N2C [COCAINE] | % | 341
COC(=O)[C@H]1C2CCC(C[C@@H]1c1ccc(Cl)cc1)N2C (stereo not given in full) | % | 154
COC(=O)[C@H]1[C@H]2CCC(C[C@H]1c1ccc(C)cc1)N2C | % | -57
COC(=O)[C@@H]1C2CCC(C[C@H]1c1ccc(Br)cc1)N2C (stereo not given in full) | % | 518
COC(=O)[C@H]1C2CCC(C[C@@H]1c1ccccc1)N2C (stereo not given in full) | % | 138
COC(=O)[C@@H]1C2CCC(C[C@H]1c1ccc(C)cc1)N2C (stereo not given in full) | % | 482
COC(=O)[C@@H]1C2CCC(C[C@H]1c1ccc(Cl)cc1)N2C (stereo not given in full) | % | 868
COC(=O)[C@H]1C2CCC(C[C@@H]1c1ccc(I)cc1)N2C (stereo not given in full) | % | 7
COC(=O)[C@@H]1C2CCC(C[C@H]1c1ccc(F)cc1)N2C (stereo not given in full) | % | 362
COC(=O)[C@H]1C2CCC(C[C@@H]1c1ccc(Br)cc1)N2C (stereo not given in full) | % | -33

----------
// IC50 collected for Sodium-dependent noradrenaline transporter (Homo sapiens, UniProt P23975)
Measurement Kind: IC50 (nM)

Compound | Assay Target | Measurement Kind | Sign Qualifier | Reported Measurement
COC(=O)[C@H]1C2CCC(C[C@@H]1c1ccc(I)cc1)N2C (some centres not stated) | Sodium-dependent noradrenaline transporter (Homo sapiens, UniProt P23975) | IC50 | = | 760
COC(=O)[C@H]1C2CCC(C[C@@H]1c1ccc(C)cc1)N2C (some centres not stated) | Sodium-dependent noradrenaline transporter (Homo sapiens, UniProt P23975) | IC50 | = | 2230
COC(=O)[C@H]1C2CCC(C[C@@H]1c1ccccc1)N2C (some centres not stated) | Sodium-dependent noradrenaline transporter (Homo sapiens, UniProt P23975) | IC50 | > | 10000
COC(=O)[C@@H]1C2CCC(C[C@H]1c1ccccc1)N2C (some centres not stated) | Sodium-dependent noradrenaline transporter (Homo sapiens, UniProt P23975) | IC50 | = | 541
COC(=O)[C@@H]1C2CCC(C[C@H]1c1ccc(F)cc1)N2C (some centres not stated) | Sodium-dependent noradrenaline transporter (Homo sapiens, UniProt P23975) | IC50 | = | 1200
COC(=O)[C@@H]1C2CCC(C[C@H]1c1ccc(C)cc1)N2C (some centres not stated) | Sodium-dependent noradrenaline transporter (Homo sapiens, UniProt P23975) | IC50 | = | 270
COC(=O)[C@@H]1C2CC[C@H](C[C@@H]1c1ccc(C)cc1)N2C | Sodium-dependent noradrenaline transporter (Homo sapiens, UniProt P23975) | IC50 | = | 60
COC(=O)[C@@H]1C2CC[C@H](C[C@@H]1c1ccc(I)cc1)N2C | Sodium-dependent noradrenaline transporter (Homo sapiens, UniProt P23975) | IC50 | = | 36
COC(=O)[C@H]1[C@H]2CCC(C[C@H]1c1ccc(C)cc1)N2C | Sodium-dependent noradrenaline transporter (Homo sapiens, UniProt P23975) | IC50 | = | 3850
COC(=O)[C@@H]1C2CC[C@H](C[C@@H]1c1ccccc1)N2C | Sodium-dependent noradrenaline transporter (Homo sapiens, UniProt P23975) | IC50 | = | 920
COC(=O)[C@H]1C2CCC(C[C@@H]1c1ccc(F)cc1)N2C (some centres not stated) | Sodium-dependent noradrenaline transporter (Homo sapiens, UniProt P23975) | IC50 | = | 7200
COC(=O)[C@@H]1C2CCC(C[C@H]1c1ccc(I)cc1)N2C (some centres not stated) | Sodium-dependent noradrenaline transporter (Homo sapiens, UniProt P23975) | IC50 | = | 52.4

Numbers sourced from ChEMBL document CHEMBL1149262.
